System: Escherichia coli
test protocol: Antibacterial activity against permeabilized Escherichia coli IBAS849 by broth microdilution method
Assay type: functional
assay metric: MIC (µg/mL)
A number alone suffices; assume µg/mL.

// below: answered compounds
CCc1[nH]c2nc(Sc3cnc4nccnc4c3)nc(N3CC(O)C3)c2c1Cl ... 4
CCc1[nH]c2nc(Sc3cnc4nccnc4c3)nc(N3CC(C)(N)C3)c2c1Cl ... 16

Now, please, on to the next compound.
Lookup: Reported MIC, compound CCc1[nH]c2nc(Sc3ccc4c(N5CC(N)C5)ncnc4c3)nc(N3CCC(N)C3)c2c1Cl (stereo not drawn) : ____
Found: 8
